Reference source: paper PMC10481538

experiment: clinical; details: both, human, in vivo, po
Can you tell me Tmax for the items I'm about to list?

compound	Tmax
C[C@H]1[C@H](C)CC[C@]2(C(=O)O)CC[C@]3(C)C(=CC[C@@H]4[C@@]5(C)C[C@@H](O)[C@H](O)[C@@](C)(CO)[C@@H]5[C@H](O)C[C@]43C)[C@H]12 [MA, madecassic acid]	2.2 to 2.8 h

Go through the list and state Tmax for each entry.
1. O=C(O)/C=C/c1ccc(O)c(O)c1 [CA, caffeic acid]
2. C[C@H]1[C@H](C)CC[C@]2(C(=O)O)CC[C@]3(C)C(=CC[C@@H]4[C@@]5(C)C[C@@H](O)[C@H](O)[C@@](C)(CO)[C@@H]5CC[C@]43C)[C@H]12 [AA, asiatic acid]

1. 4.5 (1.6) hr
2. 2.8 (0.2) hr

Sample COc1cc(CCC(=O)O)ccc1O [DHFA, Dihydroferulic acid] — what was its Tmax?
5.7 (1.5) hr
